TARGET SYSTEM: T1, human TREM2 expressed on cells (human, UniProt Q9NZC2 19-230)
T1 construct: BW5147.G.1.4 cells stably expressing human TREM2 together with Dap12, or endogenous TREM2 of primary human myeloid cells; also called huT2 BW; hTREM2 expressing cell line
T1 sequence: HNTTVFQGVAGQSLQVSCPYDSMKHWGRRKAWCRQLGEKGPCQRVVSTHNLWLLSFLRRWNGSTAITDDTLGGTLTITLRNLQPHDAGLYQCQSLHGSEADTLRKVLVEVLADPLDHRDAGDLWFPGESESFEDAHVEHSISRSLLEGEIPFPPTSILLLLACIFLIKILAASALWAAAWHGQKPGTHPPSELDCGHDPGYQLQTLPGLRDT
METHOD DESCRIPTION: FACS, hTREM2 BW cells
Recorded cell binding (FOB) by entry
API: value field is a number in FOB; no unit string.

What value of measured cell binding (FOB) is listed for AL2p-h32 (antibody, human IgG1, V domains shown, humanized, human IgG1; Fab and IgG formats under one id) VH: QVQLVQSGAEVKKPGSSVKVSCKASGYAFSSSWMNWVRQAPGQGLEWIGRIYPGDGDTNYNGEFRVRATLTADTSTTTAYMELSSLRSEDTAVYFCARLLRNQPGESYAMDYWGQGTLVTVSS VL: DVVMTQTPLSLSVTPGQPASISCRSSQSLVHSNGYTYLHWYLQKPGQSPQLLIYKVSNRFSGVPDRFSGSGSGTDFTLKISRVEAEDLGVYFCSQSTRVPYTFGQGTKLEIK ?
81

Here is the next binder: AL2p-h50 (antibody, human IgG1, V domains shown, humanized, human IgG1; Fab and IgG formats under one id) VH: QVQLVQSGAEVKKPGSSVKVSCKASGYAFSSSWMNWVRQAPGQGLEWMGRIYPGDGDTNYAQKFQGRVTITADESTSTAYMELSSLRSEDTAVYYCARLLRNQPGESYAMDYWGQGTLVTVSS VL: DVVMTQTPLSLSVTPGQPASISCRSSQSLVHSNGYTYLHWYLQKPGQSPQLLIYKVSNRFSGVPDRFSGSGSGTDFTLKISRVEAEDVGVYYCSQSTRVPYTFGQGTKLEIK
78

Now the binder AL2p-h22 (antibody, human IgG1, V domains shown, humanized, human IgG1; Fab and IgG formats under one id) VH: QVQLVQSGAEVKKPGASVKVSCKASGYAFSSSWMNWVRQAPGQGLEWIGRIYPGDGDTNYAQKFQGRVTMTADTSTSTVYMELSSLRSEDTAVYYCARLLRNQPGESYAMDYWGQGTLVTVSS VL: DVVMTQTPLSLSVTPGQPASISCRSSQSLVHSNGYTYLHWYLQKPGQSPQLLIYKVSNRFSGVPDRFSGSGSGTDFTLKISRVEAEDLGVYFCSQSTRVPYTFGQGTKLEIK
61
